Assay: NCI Yeast Anticancer Drug Screen. Data for the mec2-1 strain (AID 157)
Details: S. cerevisiae mec2-1 strain, at 50.0 µM (retest, dose inferred, filed as 5.0), hits give high values
The panel holds about 79,000 compounds, 15% with a hit somewhere; the sample as a whole holds those more often.

compound | result.unit | growth inhibition
COC1=CC(=O)[C@H]2CC(C)=CC[C@]2(C)C1=O | % | 0
O=c1[nH]c2ccc([N+](=O)[O-])cc2c2ccc(Cl)cc12 | % | 25
O=C(Oc1c(I)ccccc1=O)c1ccc([N+](=O)[O-])cc1 | % | 99
O=C(CCCN1CCC2(CC1)CC(c1ccccc1)OC2=O)c1ccc(F)cc1 (stereo not given) | % | 65
FC(F)(F)c1cccc(COCCN2CCN(Cc3cccc(C(F)(F)F)c3)CC2)c1 | % | 98
COc1cccc2c1C(=O)c1c(O)c3c(c(O)c1C2=O)CC(O)(C(C)=O)CC3OC1OC(COC(C)=O)C(OC(C)=O)C(OC(C)=O)C1OC(C)=O (stereo not given) | % | 30
COc1ccc(CCCCI)cc1 | % | 94
CCC(C1SC(=S)NC1=O)C1SC(=S)NC1=O (stereo not given) | % | 29
O=[N+]([O-])c1ccccc1C(c1ccc2ccccc2c1O)N1CCOCC1 (stereo not given) | % | 97
COc1nc2nc(Cl)cc(C)c2c2ccccc12 (tested in a mixture with another compound) | % | 91

====

Assay: NCI Yeast Anticancer Drug Screen. Data for the cln2 rad14 strain (AID 165);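 also: 0% = growth equal to vehicle treated cultures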
Conditions: S. cerevisiae cln2 rad14 strain, at 5.0 µM (retest, dose inferred, filed as 0.5), hits give high values
This is part of a sample that, as a whole, favours compounds with a hit. Of some 79,000 tested, about 15% had one in any assay.
The following compounds are listed with their measured growth inhibition values.
readout.label: growth inhibition (%)

compound | meas.value
CCOC(=O)C1SC(=Nc2cccc(Cl)c2C)N=C1C (configuration not stated) | 27
CC(C)COC(=O)c1ccc(NC(=O)CCl)cc1 | -7
CCC(=O)Nc1ccc(NC(C)=O)cc1 | 6
O=C1OC(c2cccc(Cl)c2)Sc2ccccc21 (configuration not stated) | -7
COc1cc2c(cc1OC(C)=O)C(=O)C(Br)(Br)CCC2 | 13
Cc1ccc([Si](O)(c2ccc(C)cc2)c2ccc(C)cc2)cc1 | 67
C=CCOCCC(=O)OCC=C | -1

====

Test: NCI Yeast Anticancer Drug Screen. Data for the sgs1 mgt1 strain (AID 161);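 also: 0% = growth of cultures given vehicle only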
Details: S. cerevisiae sgs1 mgt1 strain, at 50.0 µM
The panel holds about 79,000 compounds, 15% with a hit somewhere; the sample as a whole holds those more often. The source made the active and inactive calls. No stated cut-off is given here; in the data, active means growth inhibition above about 70%; inactive means the rest.
Possible outcomes: 1.0 (active), 0.0 (inactive)

compound | assigned.label
CCCCCCCCCCCCCCCCN | 1.0
CC(=O)OC12CCC3C4CC=C5CC(O)CCC5(C)C4C(=O)C3C1(C)N1CC(C)CC(O)C1C2C (stereo unspecified) | 0.0
CCCCCC(C)NCC(O)Cc1ccc(OCCCC)cc1 (stereo unspecified) | 1.0
O=c1[nH]c2ccc([N+](=O)[O-])cc2c2ccc(Cl)cc12 | 0.0
C=CCN1CCC(OC(=O)C(O)(/C=C\CC)C2CCCC2)CC1 (stereo unspecified) | 1.0
CCCCCCCCCCCCNCc1ccc(O)c(OC)c1 | 0.0
CCn1c(C)cc(=O)n1-c1ccc([N+](=O)[O-])cc1 | 0.0
C/C(=N\NC(=S)N1CCCCCC1)c1ccccn1 | 1.0
CNC(=S)N/N=C(\C=N\NC(=S)NC)c1ccccc1 | 1.0
CN(C)CC(CN(C)C)C(=O)c1ccc2c(c1)OCO2 | 1.0
c1ccc(N=C2SC3=NCCN3C2=Nc2ccccc2)cc1 | 1.0
Clc1nc(Cl)c(Cc2ccccc2)c(Cl)n1 | 1.0
CCOC(=O)C1SC(=Nc2cccc(Cl)c2C)N=C1C (stereo unspecified) | 1.0
CC(=O)SCC(=O)Nc1ccc(Cl)cc1 | 1.0
CCc1ccc(/C(C)=N/NC(N)=S)cc1 | 0.0
C=CCNCCC1CCCCCC1 | 0.0
COc1ccc(CNC(C#N)c2ccccc2)cc1OC (stereo unspecified) | 1.0
O=C(NC(c1ccccc1)N1CCOCC1)c1ccccc1 (stereo unspecified) | 1.0
O=C(O)c1ccc2c(c1)CCCC2 | 0.0
Cc1c2ccccc2c(CCl)c2ccc3ccccc3c12 | 1.0
O=C1C(Br)=C(Sc2ccc([N+](=O)[O-])cc2)C(=O)c2ccccc21 | 1.0
CC1CCN(CCOC(=O)C(c2ccccc2)C2C=CCCC2)C1C (stereo unspecified) | 1.0
CC1CCC(C(O)(C(=O)O)C2CCC(C)CC2)CC1 (stereo unspecified) | 0.0
CCOc1ccccc1/C=C1\NC(=O)N(/C=C2\C(=O)Oc3ccccc3C2=O)C1=O | 1.0
Cc1cc(N=Nc2ccccc2)ccc1O | 1.0
N#CSCN1C(=O)C2CC=CCC2C1=O (stereo unspecified) | 0.0

====

Test: NCI Yeast Anticancer Drug Screen. Data for the bub3 strain (AID 167)
Settings: S. cerevisiae bub3 mutant strain, at 5.0 µM (retest, dose inferred, filed as 0.5)
Method: Growth inhibition of yeast strains with defined genetic alterations is measured as a screen for potential anti-cancer activity. Selected strains with alterations in DNA damage repair or cell cycle control were exposed to compounds and growth inhibition was measured relative to vehicle treated controls. The strain used in this assay is bub3
The panel holds about 79,000 compounds, 15% with a hit somewhere; the sample as a whole holds those more often. Active and inactive are the calls of the source. Cut-off read from the data, not from the text of the source: active = growth inhibition above about 70%; inactive = the rest. Where a SMILES comes first, the peptide text is derived from it. [ ]: non-standard residue; d: D form. Phe(4-Cl) = N[CH](Cc1ccc(Cl)cc1)C(=O)O; 3Pal = N[CH](Cc1cccnc1)C(=O)O
Classes used: TRUE = active, FALSE = inactive

compound | assigned.label
CC(C)SC(=S)Nc1cc(Cl)c(Cl)cc1Cl | FALSE
O=[N+]([O-])c1ccc(C(Br)(Br)c2ccc([N+](=O)[O-])cc2)cc1 | TRUE
O=c1c2c3c(sc2nc2n1N=C(c1ccc(Br)cc1)CS2)CCCC3 | FALSE
O=C1NC(O)c2cccc(Cl)c2O1 (configuration not stated) | FALSE
O=C(Nc1ccccc1)c1cccc2ccccc12 | FALSE
CC(C)/C(Cl)=N/OC(NC(=O)Nc1ccc(Cl)c(Cl)c1)(C(F)(F)F)C(F)(F)F | FALSE
CCCCN(CCCC)c1ccc2c(c1)C(O)c1ccccc1-2 (configuration not stated) | FALSE
CCOC(=O)C1(C#N)C(c2ccccc2)CC(O)(c2ccc([N+](=O)[O-])cc2)C(C(=O)c2ccc([N+](=O)[O-])cc2)C1c1ccccc1 (configuration not stated) | FALSE
C/C(=N/NC(=S)N1CCCCC1)c1cccc(/C(C)=N\NC(=S)N2CCCCC2)n1 | FALSE
c1ccc(N2CCN(c3ccccc3)C2Cc2c[nH]c3ccccc23)cc1 | FALSE
Nc1c(Cl)[nH]c(C(F)(F)F)nc1=S | FALSE
C/C(=N\NC(=S)Nc1ccc(S(N)(=O)=O)cc1)c1ccccn1 | FALSE
COc1cccc2c1OC(c1ccc(C#N)cc1)C([N+](=O)[O-])=C2 (configuration not stated) | TRUE
CS(=O)(=O)OCCN(CCOS(C)(=O)=O)c1ccc(C=Nc2cccc(Br)c2)c(Cl)c1 | FALSE
COC(=O)c1ccc(CCC2=CC(=O)C=CC2=O)cc1 | FALSE
NCc1ccc(O)c(O)c1O | FALSE
O=C(CC(=O)C(F)(F)F)c1ccc(-c2ccccc2)cc1 | FALSE
Cc1cccc2c(=O)c3ccccc3oc12 | FALSE
CCCCCC(C)[P+](c1ccccc1)(c1ccccc1)c1ccccc1 (configuration not stated) | FALSE
O=[N+]([O-])c1cc(Br)cc(Br)c1O | FALSE
CCN(CC)C(=O)N1CCN(c2cccc(Cl)c2)CC1 | FALSE
O=C1C(Sc2ccc3ccccc3c2)=C(Sc2ccc3ccccc3c2)C(=O)c2ccccc21 | TRUE
O=C(O)/C=C/C(=O)NNc1nc2ccccc2s1 | FALSE
CC(=O)NC(Cc1ccc(Cl)cc1)C(=O)NC(Cc1ccc(Cl)cc1)C(=O)NC(Cc1cccnc1)C(=O)NC(CO)C(=O)NC(Cc1ccc(O)cc1)C(=O)NC(CCCN=C(N)N)C(=O)NC(CC(C)C)C(=O)NC(CCCN=C(N)N)C(=O)N1CCCC1C(=O)NC(C)C(=O)O (configuration not stated) (Ac-[Phe(4-Cl)][Phe(4-Cl)][3Pal]SYRLRPA-OH; configuration not given here) | FALSE
CN1/C(=C/C=C/C(I)=C/C=C/C2=[N+](C)c3ccccc3C2(C)C)C(C)(C)c2ccccc21 | FALSE
CCCCCCCC[N+](C)(CCCCCCCC)CCCCCCCC | TRUE
O=c1sc(=S)[nH]c2ccccc12 | FALSE
CN(C)CC1CCCCCCCCCCCCC(CN(C)C)C1=O (configuration not stated) | FALSE
CCCCCCCCCc1c(O)c(O)c(CCCCCCCCC)c(CCCCCCCCC)c1CCCCCCCCC | FALSE
Cc1cc(N=Nc2ccccc2)ccc1O | FALSE
Cc1ccc(C2C(O)=C(c3ccccc3)Sc3ccc(C)cc32)cc1 (configuration not stated) | FALSE
O=C(CN1CCCCC1)c1ccc(/C=C/c2ccc(Cl)cc2)cc1 | FALSE
O=C(COc1ccc(Cl)cc1)OCCO | FALSE
COc1cc(OC)cc(C2SCC(=O)N2c2nncs2)c1 (configuration not stated) | FALSE
COC(=O)Nc1nc2ccc(CCC(=O)c3c(C)oc(C)c3-c3ccc(NC(C)=O)cc3)cc2[nH]1 | FALSE
NC(N)=NS(=O)(=O)c1ccc(N=Cc2c3ccccc3nc3cc(Cl)ccc23)cc1 | FALSE
O=C(CCCSCCCC(=O)NNc1ccccc1)NNc1ccccc1 | FALSE
O=C1C(C(O)(C(F)(F)Cl)C(F)(F)Cl)CCC1C(O)(C(F)(F)Cl)C(F)(F)Cl (configuration not stated) | TRUE
[O-]c1c2cc(-[n+]3c(-c4ccccc4)cc(-c4ccccc4)cc3-c3ccccc3)cc1CO[C@@H](c1ccccc1)[C@H](c1ccccc1)OCCOCCO[C@@H](c1ccccc1)[C@H](c1ccccc1)OC2 | TRUE
C(CCCCCN1CCCCC1)CCCCN1CCCCC1 | FALSE
COc1ccc(N)c([N+](=O)[O-])c1 | FALSE
Oc1c(Cl)cc(Cl)cc1/C=C1\C=Nc2ccccc21 | FALSE

These data points were gathered from PubChem BioAssay (NCI).
